System: Escherichia coli TOP10
Experiment: shrunken log2 fold change of peptide-encoding DNA abundance (4.5 h post-induction vs induction); higher = less antimicrobial activity (less host growth inhibition)
Conditions: time post-induction: 4.5 h; library: site-saturation at positions 5, 18, 19, 20
Lab note: compare shrunken log2 fold change against 0.1. Equal or greater, write t. Smaller, write f.

Answered examples (10):
{"input_sequence": "RRIRNRPPRLPRPRPRPNSYPRP", "target_or_test_system": "Escherichia coli TOP10", "group_label": "f"}
{"input_sequence": "RRIRRRPPRLPRPRPRPRTWPRP", "target_or_test_system": "Escherichia coli TOP10", "group_label": "t"}
{"input_sequence": "RRIRNRPPRLPRPRPRPTLTPRP", "target_or_test_system": "Escherichia coli TOP10", "group_label": "f"}
{"input_sequence": "RRIRCRPPRLPRPRPRPTIWPRP", "target_or_test_system": "Escherichia coli TOP10", "group_label": "t"}
{"input_sequence": "RRIRERPPRLPRPRPRPFFNPRP", "target_or_test_system": "Escherichia coli TOP10", "group_label": "t"}
{"input_sequence": "RRIRRRPPRLPRPRPRPCFAPRP", "target_or_test_system": "Escherichia coli TOP10", "group_label": "t"}
{"input_sequence": "RRIRTRPPRLPRPRPRPMEYPRP", "target_or_test_system": "Escherichia coli TOP10", "group_label": "f"}
{"input_sequence": "RRIRWRPPRLPRPRPRPIYCPRP", "target_or_test_system": "Escherichia coli TOP10", "group_label": "f"}
{"input_sequence": "RRIRSRPPRLPRPRPRPEAGPRP", "target_or_test_system": "Escherichia coli TOP10", "group_label": "t"}
{"input_sequence": "RRIRVRPPRLPRPRPRPKGVPRP", "target_or_test_system": "Escherichia coli TOP10", "group_label": "t"}

Incoming: Kindly determine if shrunken log2 fold change recorded for RRIRCRPPRLPRPRPRPVMQPRP is above or exactly 0.1.
Outgoing: f

Incoming: Kindly determine if shrunken log2 fold change recorded for RRIRVRPPRLPRPRPRPDDSPRP is above or exactly 0.1.
Outgoing: t

Incoming: Kindly determine if shrunken log2 fold change recorded for RRIRSRPPRLPRPRPRPVRKPRP is above or exactly 0.1.
Outgoing: t

Incoming: Kindly determine if shrunken log2 fold change recorded for RRIRERPPRLPRPRPRPVWWPRP is above or exactly 0.1.
Outgoing: t

Incoming: Kindly determine if shrunken log2 fold change recorded for RRIRSRPPRLPRPRPRPEDVPRP is above or exactly 0.1.
Outgoing: t

====

Test system: Escherichia coli TOP10
Experiment: shrunken log2 fold change of peptide-encoding DNA abundance (4.5 h post-induction vs induction); higher = less antimicrobial activity (less host growth inhibition)
Settings: time post-induction: 4.5 h; library: site-saturation at positions 5, 18, 19, 20
value_type: shrunken log2 fold change
Enter the number alone.

Incoming: Recorded shrunken log2 fold change for RRIRARPPRLPRPRPRPWVCPRP , please?
Outgoing: -0.136

Incoming: Recorded shrunken log2 fold change for RRIRWRPPRLPRPRPRPMQDPRP , please?
Outgoing: -0.13

Incoming: Recorded shrunken log2 fold change for RRIRLRPPRLPRPRPRPYREPRP , please?
Outgoing: -0.134

====

Listing of entries alongside the reported shrunken log2 fold change.
Tested on: Escherichia coli TOP10;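 also: peptides expressed intracellularly from a pBAD plasmid library in pooled LB shake-flask culture, induced with 0.3% L-arabinose, DNA abundance read by NGS, three biological replicates, DESeq2 with apeglm shrinkage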
Assay: shrunken log2 fold change of peptide-encoding DNA abundance (4.5 h post-induction vs induction); higher = less antimicrobial activity (less host growth inhibition)
Conditions: time post-induction: 4.5 h; library: site-saturation at positions 5, 18, 19, 20
Enter the number alone.

# count of solved cases: 5
{"input_sequence": "RRIRNRPPRLPRPRPRPMAFPRP", "target_or_test_system": "Escherichia coli TOP10", "value_type": "shrunken log2 fold change", "measured_result": -0.192}
{"input_sequence": "RRIRERPPRLPRPRPRPRERPRP", "target_or_test_system": "Escherichia coli TOP10", "value_type": "shrunken log2 fold change", "measured_result": 0.389}
{"input_sequence": "RRIRFRPPRLPRPRPRPIKTPRP", "target_or_test_system": "Escherichia coli TOP10", "value_type": "shrunken log2 fold change", "measured_result": -0.0134}
{"input_sequence": "RRIRRRPPRLPRPRPRPGWPPRP", "target_or_test_system": "Escherichia coli TOP10", "value_type": "shrunken log2 fold change", "measured_result": 0.858}
{"input_sequence": "RRIRYRPPRLPRPRPRPHPHPRP", "target_or_test_system": "Escherichia coli TOP10", "value_type": "shrunken log2 fold change", "measured_result": -0.744}

Incoming: What is its shrunken log2 fold change for Escherichia coli TOP10? Entry: RRIRLRPPRLPRPRPRPTQSPRP
Outgoing: 0.144

Incoming: What is its shrunken log2 fold change for Escherichia coli TOP10? Entry: RRIRPRPPRLPRPRPRPVDKPRP
Outgoing: -0.153

Incoming: What is its shrunken log2 fold change for Escherichia coli TOP10? Entry: RRIRYRPPRLPRPRPRPFVFPRP
Outgoing: -0.95

Incoming: What is its shrunken log2 fold change for Escherichia coli TOP10? Entry: RRIRGRPPRLPRPRPRPVKIPRP
Outgoing: 0.16

Incoming: What is its shrunken log2 fold change for Escherichia coli TOP10? Entry: RRIRCRPPRLPRPRPRPSARPRP
Outgoing: 0.16

Incoming: What is its shrunken log2 fold change for Escherichia coli TOP10? Entry: RRIRQRPPRLPRPRPRPWRPPRP
Outgoing: 0.143

Incoming: What is its shrunken log2 fold change for Escherichia coli TOP10? Entry: RRIRLRPPRLPRPRPRPREHPRP
Outgoing: 0.204

Incoming: What is its shrunken log2 fold change for Escherichia coli TOP10? Entry: RRIRSRPPRLPRPRPRPNQFPRP
Outgoing: -0.232

Incoming: What is its shrunken log2 fold change for Escherichia coli TOP10? Entry: RRIRGRPPRLPRPRPRPGIGPRP
Outgoing: 0.942

Incoming: What is its shrunken log2 fold change for Escherichia coli TOP10? Entry: RRIRMRPPRLPRPRPRPKPVPRP
Outgoing: 0.895
